- target or system: human TLR7 (Homo sapiens (Human), UniProt Q9NYK1)
- Sequence (Q9NYK1 27-1049): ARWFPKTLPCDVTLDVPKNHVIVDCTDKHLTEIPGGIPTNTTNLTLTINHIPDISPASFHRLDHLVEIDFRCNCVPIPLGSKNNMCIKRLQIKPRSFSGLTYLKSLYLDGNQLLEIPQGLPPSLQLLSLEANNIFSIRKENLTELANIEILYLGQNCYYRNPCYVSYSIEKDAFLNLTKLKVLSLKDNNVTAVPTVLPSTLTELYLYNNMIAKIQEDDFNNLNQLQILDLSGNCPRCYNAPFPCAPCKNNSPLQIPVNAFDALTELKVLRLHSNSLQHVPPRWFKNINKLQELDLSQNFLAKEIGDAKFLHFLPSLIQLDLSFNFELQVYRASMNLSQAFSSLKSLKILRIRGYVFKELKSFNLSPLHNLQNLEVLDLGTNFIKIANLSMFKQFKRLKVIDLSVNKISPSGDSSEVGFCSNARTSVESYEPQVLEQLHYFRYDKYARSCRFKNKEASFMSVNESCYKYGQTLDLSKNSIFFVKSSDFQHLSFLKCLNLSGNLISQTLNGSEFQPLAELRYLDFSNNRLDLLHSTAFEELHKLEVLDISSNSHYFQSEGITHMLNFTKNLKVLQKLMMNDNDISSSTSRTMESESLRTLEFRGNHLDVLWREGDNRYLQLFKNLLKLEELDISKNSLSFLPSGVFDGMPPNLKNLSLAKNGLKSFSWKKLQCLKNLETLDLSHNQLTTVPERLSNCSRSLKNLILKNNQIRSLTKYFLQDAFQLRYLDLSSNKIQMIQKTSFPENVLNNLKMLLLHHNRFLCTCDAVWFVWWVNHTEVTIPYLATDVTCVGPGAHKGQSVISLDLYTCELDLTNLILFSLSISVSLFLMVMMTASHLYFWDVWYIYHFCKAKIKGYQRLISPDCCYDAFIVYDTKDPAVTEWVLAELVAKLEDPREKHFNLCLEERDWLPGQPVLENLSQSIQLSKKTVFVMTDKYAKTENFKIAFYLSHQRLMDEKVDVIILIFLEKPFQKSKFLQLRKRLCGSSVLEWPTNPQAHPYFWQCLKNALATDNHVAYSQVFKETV
- assay info: TLR7 inhibition reporter assay (HEK-Blue, SEAP)
- stated conditions: HEK-Blue cells overexpressing human TLR7, gardiquimod 7.5 μM stimulation
- Description: TLR7/8/9 Inhibition Reporter Assays HEK-Blue™-cells (Invivogen) overexpressing human TLR7, TLR8 or TLR9 receptors were used for screening inhibitors of these receptors using an inducible SEAP (secreted embryonic alkaline phosphatase) reporter gene under the control of the IFN-β minimal promoter fused to five NF-κc Band AP-1-binding sites. […]
readout kind: pIC50
Remember the convention: pIC50 equals -log10 of concentration in molar.

molecule="Cc1cc(-c2[nH]c3ccc(-c4nnc(C5CN6CCC5CC6)o4)cc3c2C(C)C)ccn1 (stereo not shown) [Example 231]" target_or_system="human TLR7 (Homo sapiens (Human), UniProt Q9NYK1)" readout_kind=pIC50 value_measured=7.16

Query: Which pIC50 reading was recorded for the molecule "CCc1c(-c2ccc(OC)c(OC)c2)[nH]c2ccc(-c3noc([C@@H](N)Cc4c[nH]cn4)n3)cc12" ?
Reply: 6.19

Query: Let us now turn to CC(C)c1c(-c2ccnc3[nH]ncc23)[nH]c2ccc(-c3nnc(C4CCCN(C)C4)o3)cc12 (stereo not shown) [Example 168]
Reply: 7.09

Query: Let us now turn to "CC(C)c1c(-c2ccnc3[nH]ncc23)[nH]c2ccc(-c3nnc(CN4CCNC(=O)C4)o3)cc12"
Reply: 5.85

====

- target or system: human TLR8 (Homo sapiens (Human), UniProt Q9NR97)
- Sequence (Q9NR97 27-1041): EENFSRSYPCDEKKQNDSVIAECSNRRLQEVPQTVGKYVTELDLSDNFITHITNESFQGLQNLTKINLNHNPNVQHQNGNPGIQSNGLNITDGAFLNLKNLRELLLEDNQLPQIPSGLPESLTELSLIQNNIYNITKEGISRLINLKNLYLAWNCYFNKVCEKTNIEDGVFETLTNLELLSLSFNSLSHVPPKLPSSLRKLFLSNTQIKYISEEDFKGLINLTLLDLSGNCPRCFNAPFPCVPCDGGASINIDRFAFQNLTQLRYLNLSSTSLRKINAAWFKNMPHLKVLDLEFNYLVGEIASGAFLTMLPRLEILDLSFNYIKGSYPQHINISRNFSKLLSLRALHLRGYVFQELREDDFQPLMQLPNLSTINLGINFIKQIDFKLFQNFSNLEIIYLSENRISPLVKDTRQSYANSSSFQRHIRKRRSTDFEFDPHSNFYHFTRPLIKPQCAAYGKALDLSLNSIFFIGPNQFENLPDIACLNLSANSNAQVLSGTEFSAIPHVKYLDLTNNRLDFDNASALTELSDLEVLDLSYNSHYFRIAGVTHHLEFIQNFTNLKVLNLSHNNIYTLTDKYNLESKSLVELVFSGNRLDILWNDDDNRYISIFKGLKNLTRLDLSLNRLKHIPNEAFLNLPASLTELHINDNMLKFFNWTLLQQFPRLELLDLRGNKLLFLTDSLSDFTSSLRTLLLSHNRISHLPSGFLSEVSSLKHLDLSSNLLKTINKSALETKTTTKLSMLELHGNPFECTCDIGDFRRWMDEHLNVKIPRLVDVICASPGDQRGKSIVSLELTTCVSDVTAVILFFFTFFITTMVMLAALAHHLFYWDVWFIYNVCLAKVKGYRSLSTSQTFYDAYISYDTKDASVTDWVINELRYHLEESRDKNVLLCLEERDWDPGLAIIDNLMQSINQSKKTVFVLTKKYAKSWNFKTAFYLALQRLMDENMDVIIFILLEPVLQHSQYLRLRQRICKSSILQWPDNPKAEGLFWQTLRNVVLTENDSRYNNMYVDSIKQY
- assay info: TLR8 inhibition reporter assay (HEK-Blue, SEAP)
- stated conditions: HEK-Blue cells overexpressing human TLR8, R848 15.9 μM stimulation
Would you mind classing the entries by IC50? Ranges: c1: < 5 nM; c2: ≥ 5 nM and < 30 nM; c3: ≥ 30 nM

compound=COc1ccc(-c2[nH]c3ccc(-c4nnc(CNCCS(=O)(=O)O)o4)cc3c2C(C)C)cc1OC target_or_system="human TLR8 (Homo sapiens (Human), UniProt Q9NR97)" group=c3
compound=COc1ccc(-c2[nH]c3ccc(-c4nnc(CC(F)(F)F)o4)cc3c2C(C)C)cc1OC target_or_system="human TLR8 (Homo sapiens (Human), UniProt Q9NR97)" group=c3
compound=Cc1cc(-c2[nH]c3ccc(-c4nnc([C@H]5CCNC5)o4)cc3c2C(C)C)ccn1 target_or_system="human TLR8 (Homo sapiens (Human), UniProt Q9NR97)" group=c1
compound=Cc1cc(-c2[nH]c3ccc(-c4cc5c(s4)CNCC5)cc3c2C(C)C)cc(C)n1 target_or_system="human TLR8 (Homo sapiens (Human), UniProt Q9NR97)" group=c1
compound=CNCCc1nnc(-c2ccc3[nH]c(-c4ccc5ncnn5c4)c(C(C)C)c3c2)o1 target_or_system="human TLR8 (Homo sapiens (Human), UniProt Q9NR97)" group=c2
compound=COc1ccc(-c2[nH]c3ccc(-c4cnc(N5CCN(C6CCC6)CC5)nc4)cc3c2C(C)C)cc1OC target_or_system="human TLR8 (Homo sapiens (Human), UniProt Q9NR97)" group=c3
compound=Cc1cc(-c2[nH]c3ccc(-c4nc(C(=O)NC5CCN(C(C)C)CC5)c(C)o4)cc3c2C(C)C)ccn1 target_or_system="human TLR8 (Homo sapiens (Human), UniProt Q9NR97)" group=c2
compound=Cc1cc(-c2[nH]c3ccc(-c4nnc([C@H]5CSCN5)o4)cc3c2C(C)C)ccn1 target_or_system="human TLR8 (Homo sapiens (Human), UniProt Q9NR97)" group=c3
compound=Cc1cc(-c2[nH]c3ccc(-c4nnc(CCCN(C)C)o4)cc3c2C(C)C)ccn1 target_or_system="human TLR8 (Homo sapiens (Human), UniProt Q9NR97)" group=c1
compound=COc1ccc(-c2[nH]c3ccc(-c4nnc(C5CCN(C)CC5)o4)cc3c2C(C)C)cc1OC target_or_system="human TLR8 (Homo sapiens (Human), UniProt Q9NR97)" group=c1

# input for lookup
Query: Please let me know in which category the item "Cc1cc(-c2[nH]c3ccc(-c4nc(C(=O)NCCCN)co4)cc3c2C(C)C)cc(C)n1" belongs.
Reply: c3

====

Known IC50 of a selection of compounds
- target or system: human TLR7 (Homo sapiens (Human))
- assay info: TLR7 inhibition reporter assay (HEK-Blue, SEAP)
- stated conditions: HEK-Blue cells overexpressing human TLR7, gardiquimod 7.5 μM stimulation
Answer format: numeric, nM implied, no suffix.

Some entries whose results are on file:
compound=CC(C)c1c(-c2ccnc3[nH]ncc23)[nH]c2ccc(-c3nc4n(n3)CCN(C3CCN(C(C)C)CC3)C4)cc12 value_measured=216
compound=CC(C)CN1CCC(NC(=O)c2nnc(-c3ccc4[nH]c(-c5ccnc6[nH]ncc56)c(C(C)C)c4c3)o2)CC1 value_measured=203

// moving on: another record for IC50
Query: Which IC50 reading was recorded for the compound "Cc1cc(-c2[nH]c3ccc(-c4nnc(C(=O)NCCN(C)C)s4)cc3c2C(C)C)ccn1" ?
Reply: 18

====

- target or system: human TLR8 (Homo sapiens (Human))
- assay info: TLR8 inhibition reporter assay (HEK-Blue, SEAP)
- stated conditions: HEK-Blue cells overexpressing human TLR8, R848 15.9 μM stimulation
readout kind: pIC50
Remember the convention: pIC50 equals -log10 of concentration in molar.

Some entries whose results are on file:
compound="COc1ccc(-c2[nH]c3ccc(-c4cccc(N5CCN(C(C)C)CC5)c4)cc3c2C(C)C)cc1OC [Example 370]" value_measured=7.03
compound="Cc1cc(-c2[nH]c3ccc(-c4nc(C(=O)NCC(C)(C)N5CCOCC5)co4)cc3c2C(C)C)cc(C)n1 [Example 289]" value_measured=8.00
compound="COc1ccc(-c2[nH]c3ccc(-c4nnc(C(=O)N5CCC(O)CC5)o4)cc3c2C(C)C)cc1OC [Example 91]" value_measured=6.95

Query: Which pIC50 reading was recorded for the compound COc1ccc(-c2[nH]c3ccc(-c4ccnc(C(=O)N5CCCN(C)CC5)c4)cc3c2C(C)C)cc1OC [Example 10] ?
Reply: 8.22

Query: Let us now turn to Cc1cc(-c2[nH]c3ccc(-c4nnc(C5CN6CCC5CC6)o4)cc3c2C(C)C)cc(C)n1 (stereo not shown) [Example 250]
Reply: 8.68

Query: Let us now turn to Cc1cc(-c2[nH]c3ccc(-c4nccs4)cc3c2C(C)C)ccn1 [Example 171]
Reply: 7.72

Query: Let us now turn to Cc1cc(-c2[nH]c3ccc(-c4nnc(C5CCCN(C(C)C)C5)[nH]4)cc3c2C(C)C)ccn1 (stereo not shown) [Example 204]
Reply: 8.24

====

- target or system: UniProt:Q9NR96
- Sequence (Q9NR96 26-1032): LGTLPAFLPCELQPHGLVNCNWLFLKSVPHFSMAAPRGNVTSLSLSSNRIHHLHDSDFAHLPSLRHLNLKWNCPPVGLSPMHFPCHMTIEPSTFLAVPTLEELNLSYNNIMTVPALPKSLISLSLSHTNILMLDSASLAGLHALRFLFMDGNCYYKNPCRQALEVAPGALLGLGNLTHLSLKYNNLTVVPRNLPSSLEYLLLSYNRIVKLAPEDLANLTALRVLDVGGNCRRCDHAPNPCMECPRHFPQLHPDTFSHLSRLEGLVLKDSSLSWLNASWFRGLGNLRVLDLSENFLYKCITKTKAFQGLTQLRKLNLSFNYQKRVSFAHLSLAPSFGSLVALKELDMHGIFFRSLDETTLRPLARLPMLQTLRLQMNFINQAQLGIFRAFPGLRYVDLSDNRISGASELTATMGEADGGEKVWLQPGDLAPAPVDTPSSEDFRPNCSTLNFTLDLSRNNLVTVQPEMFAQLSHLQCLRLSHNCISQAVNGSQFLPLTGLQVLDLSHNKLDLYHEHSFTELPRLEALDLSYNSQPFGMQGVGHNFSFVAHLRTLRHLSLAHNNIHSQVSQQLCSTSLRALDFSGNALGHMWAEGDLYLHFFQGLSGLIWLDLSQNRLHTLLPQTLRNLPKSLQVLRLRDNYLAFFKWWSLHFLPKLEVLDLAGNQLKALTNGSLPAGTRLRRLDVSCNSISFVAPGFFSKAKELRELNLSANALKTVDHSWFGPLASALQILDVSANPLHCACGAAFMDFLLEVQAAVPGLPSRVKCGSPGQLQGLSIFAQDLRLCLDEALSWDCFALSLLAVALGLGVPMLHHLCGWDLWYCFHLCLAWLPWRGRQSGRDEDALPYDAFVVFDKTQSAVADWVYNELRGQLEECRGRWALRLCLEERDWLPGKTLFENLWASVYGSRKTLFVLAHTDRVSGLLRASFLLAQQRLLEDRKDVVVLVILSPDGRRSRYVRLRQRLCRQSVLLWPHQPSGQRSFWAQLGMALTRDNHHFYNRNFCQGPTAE
- assay info: TLR9 inhibition reporter assay (HEK-Blue, SEAP)
- stated conditions: HEK-Blue cells overexpressing human TLR9, ODN2006 5 nM stimulation
Known pIC50 of a selection of compounds
Remember the convention: pIC50 equals -log10 of concentration in molar.

Some entries whose results are on file:
line_notation=COc1ccc(-c2[nH]c3ccc(-c4nnc(CN5CCCN(C(C)=O)CC5)o4)cc3c2C(C)C)cc1OC value_measured=4.84
line_notation=COc1ccc(-c2[nH]c3ccc(-c4ccc(N5CCCN(CCO)CC5)cc4)cc3c2C(C)C)cc1OC value_measured=5.53

Query: Please tell me: pIC50 of "COc1ccc(-c2[nH]c3ccc(-c4nnc(C5CCN(C(=O)CN(C)C)CC5)o4)cc3c2C(C)C)cc1OC" , system UniProt:Q9NR96?
Reply: 5.91

====

Known IC50 of a selection of molecules
- target or system: UniProt:Q9NR97
- assay info: TLR8 inhibition reporter assay (HEK-Blue, SEAP)
- stated conditions: HEK-Blue cells overexpressing human TLR8, R848 15.9 μM stimulation
A bare number is not enough; add the unit after it.

molecule="Cc1cc(-c2[nH]c3ccc(-c4nnc(C[C@@H]5CCCN5)o4)cc3c2C(C)C)ccn1 [Example 71]" value_measured="1.4 nM"
molecule="Cc1cc(-c2[nH]c3ccc(-c4nnc(CCN5CCCCC5)o4)cc3c2C(C)C)ccn1 [Example 260]" value_measured="2.2 nM"
molecule="CCc1c(-c2ccc(OC)c(OC)c2)[nH]c2ccc(-c3noc(C4CCN(Cc5ccccc5)C4)n3)cc12 (stereo not shown) [Example 443]" value_measured="740 nM"

// moving on: another record for IC50
Query: Which IC50 reading was recorded for the molecule Cc1cc(-c2[nH]c3ccc(-c4nnc(C5CCN(Cc6ccccc6)CC5)[nH]4)cc3c2C(C)C)ccn1 [Example 163] ?
Reply: 8.6 nM

====

Known log10 of IC50 of a selection of molecules
- target or system: human TLR8 (Homo sapiens (Human), UniProt Q9NR97)
- assay info: TLR8 inhibition reporter assay (HEK-Blue, SEAP)
- Type: cell-based
- stated conditions: HEK-Blue cells overexpressing human TLR8, R848 15.9 μM stimulation
On a log10 scale: recorded IC50, unit nM.

Some entries whose results are on file:
molecule="CNC(=O)c1c(-c2ccc3[nH]c(-c4ccnc(C)c4)c(C(C)C)c3c2)nn2c1CNCC2 [Example 215]" readout_kind="log10 of IC50" value_measured=1.15
molecule="Cc1cc(-c2[nH]c3ccc(-c4nnc(CCN(C)C)o4)cc3c2C(C)C)cc(C)n1 [Example 270]" readout_kind="log10 of IC50" value_measured=0.00
molecule="Cc1cc(-c2[nH]c3ccc(-c4nnc(Cc5c[nH]c6ccccc56)o4)cc3c2C(C)C)ccn1 [Example 73]" readout_kind="log10 of IC50" value_measured=3.11
molecule="CC(C)c1c(-c2ccnc3[nH]ncc23)[nH]c2ccc(-c3nnc(CNC4CC4)o3)cc12 [Example 148]" readout_kind="log10 of IC50" value_measured=1.57
molecule="CCOCCNCc1nnc(-c2ccc3[nH]c(-c4ccc(OC)c(OC)c4)c(C(C)C)c3c2)o1 [Example 111]" readout_kind="log10 of IC50" value_measured=2.42
molecule="Cc1cc(-c2[nH]c3ccc(-c4ccc(N)nc4)cc3c2C(C)C)cc(C)n1 [Example 236]" readout_kind="log10 of IC50" value_measured=0.43

// moving on: another record for log10 of IC50
Query: Which log10 of IC50 reading was recorded for the molecule Cc1cc(-c2[nH]c3ccc(-c4nnc(CN5CCN(C)CC5)o4)cc3c2C(C)C)ccn1 [Example 79] ?
Reply: 0.88
